Where do these numbers come from? They come from patent US20170096461A1.

// reported peptide exchange yield per item
molecular target: T1, HLA-A*02:01 (peptide-receptive MHC class I monomer after UV-ligand exchange) (human); test: UV-ligand exchange + anti-b2m ELISA; exchange yield grade: + >=10%, ++ >=20%, +++ >=50, ++++ >=75%
T1 construct: Monomers made with a UV-sensitive peptide that is cleaved by UV and exchanged for the test peptide; captured on streptavidin plates; also called MHC molecules

Binder | peptide exchange yield
ALLPSDCLQEA [peptide ALLPSDCLQEA (SEQ ID NO: 115)] | 50 to 75%
TLVDNISTMAL [peptide TLVDNISTMAL (SEQ ID NO: 90)] | 50 to 75%
FLTAFLVQI [peptide FLTAFLVQI (SEQ ID NO: 13)] | 50 to 75%
KMPDDVWLV [peptide KMPDDVWLV (SEQ ID NO: 106)] | ≥ 75%
LLPEKSWEI [peptide LLPEKSWEI (SEQ ID NO: 22)] | 50 to 75%
SLLTAISEV [peptide SLLTAISEV (SEQ ID NO: 15)] | 50 to 75%
ALIVGIPSV [peptide ALIVGIPSV (SEQ ID NO: 44)] | ≥ 75%
YLWSEVFSM [peptide YLWSEVFSM (SEQ ID NO: 43)] | 50 to 75%
